Origin of the recorded values: patent US20240270821A1

Molecular target: hGIPR (Homo sapiens)
Sequence (P48546 22-466): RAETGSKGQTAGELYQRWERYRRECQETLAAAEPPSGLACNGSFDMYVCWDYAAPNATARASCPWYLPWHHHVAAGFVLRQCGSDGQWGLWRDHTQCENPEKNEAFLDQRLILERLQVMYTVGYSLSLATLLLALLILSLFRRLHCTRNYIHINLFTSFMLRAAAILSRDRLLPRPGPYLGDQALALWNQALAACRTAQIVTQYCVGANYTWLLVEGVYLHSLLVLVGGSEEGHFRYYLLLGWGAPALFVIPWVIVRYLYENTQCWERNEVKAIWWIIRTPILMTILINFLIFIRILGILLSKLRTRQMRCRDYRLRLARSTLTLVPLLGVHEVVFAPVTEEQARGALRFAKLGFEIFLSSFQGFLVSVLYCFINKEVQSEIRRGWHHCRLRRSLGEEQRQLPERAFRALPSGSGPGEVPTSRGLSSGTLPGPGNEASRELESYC
Assay: Functional cAMP activity in the presence of 1% HSA
Format: cell-based
Settings: read-out: cAMP Rel EC50, hGIPR
pEC50: −log10 of the molar value. Starred links: 1 amine or outer side, 2 acyl side, 3 side chain; linkers in the order of their positions; H or OH if unused. Non-standard residues stand in square brackets, D forms with d. Groups on a side chain read outwards from the residue. *: point of attachment. C20 diacid = O=C(O)CCCCCCCCCCCCCCCCCCC(=O)*; C18 diacid = O=C(O)CCCCCCCCCCCCCCCCC(=O)*; αMePhe(2-F) = C[C@](N)(Cc1ccccc1F)C(=O)O; γGlu = O=C(O)[C@H](CCC(=O)[*:2])N[*:1]; αMe4Pal = C[C@](N)(Cc1ccncc1)C(=O)O; αMeY = C[C@](N)(Cc1ccc(O)cc1)C(=O)O; 4Pal = N[C@@H](Cc1ccncc1)C(=O)O; αMeL = CC(C)C[C@](C)(N)C(=O)O; αMeS = C[C@](N)(CO)C(=O)O; Orn = NCCC[C@H](N)C(=O)O; AEEA = NCCOCCOCC(=O)O; Aib = CC(C)(N)C(=O)O

>  <substance>
H-Y[Aib]QGTFTSDFSK[αMeL]LDKK([AEEA-γGlu-C20 diacid])AQ[Aib]AFIEYLLEGGPSSGEPPPGEG[AEEA]-NH2 [Example 54]

>  <targetDesc>
hGIPR (Homo sapiens)

>  <pEC50>
6.77

$$$$
>  <substance>
H-Y[Aib]QGT[αMePhe(2-F)]TSD[4Pal]SI[αMeL]LD[Orn]K([AEEA-γGlu-C18 diacid])AQ[αMe4Pal]EFI[dE][αMeY]LQEGGPSSGEPPPSGS-NH2 [Example 648]

>  <targetDesc>
hGIPR (Homo sapiens)

>  <pEC50>
8.85

$$$$
>  <substance>
H-Y[Aib]QGT[αMePhe(2-F)]TSD[4Pal]SI[αMeL]LD[Orn]K([AEEA-γGlu-C18 diacid])AQ[αMe4Pal][Orn]FI[dE][αMeY]LIEGGPSSGEPPPSGS-NH2 [Example 706]

>  <targetDesc>
hGIPR (Homo sapiens)

>  <pEC50>
9.04

$$$$
>  <substance>
H-Y[Aib]QGT[αMePhe(2-F)]TSD[4Pal][αMeS]I[αMeL]LD[Orn]K([AEEA-γGlu-C18 diacid])AQ[Aib]NFIEYLIEGGPSSGEPPPEGE-NH2 [Example 483]

>  <targetDesc>
hGIPR (Homo sapiens)

>  <pEC50>
8.93

$$$$
>  <substance>
H-Y[Aib]QGT[αMePhe(2-F)]TSDYSKLLDEIAQK([AEEA-γGlu-C20 diacid])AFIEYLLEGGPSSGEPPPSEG-NH2 [Example 303]

>  <targetDesc>
hGIPR (Homo sapiens)

>  <pEC50>
7.35

$$$$
